Target: T1, cynomolgus monkey TREM2 Fc fusion (entire TREM2 ECD; only one Fc arm fused to TREM2) (cynomolgus monkey, UniProt Q9NZC2 19-174 (human entry))
T1 construct: also called cyno TREM2-Fc
T1 chain: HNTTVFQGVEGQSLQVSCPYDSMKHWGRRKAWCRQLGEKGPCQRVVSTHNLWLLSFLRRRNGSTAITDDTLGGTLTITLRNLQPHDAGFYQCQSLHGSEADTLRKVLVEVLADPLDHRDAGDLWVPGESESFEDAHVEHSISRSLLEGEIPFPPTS
Assay: BLI, Fab, monovalent
READOUT_LABEL: pKd
Keep it numeric: pKd is minus log10 of the concentration in mol/L.

Some solved cases for reference:
{"BINDER": "AL2p-5 (antibody, V domains shown, AL2p-h50 variant; Fab and IgG formats under one id; also called AL2-5) VH: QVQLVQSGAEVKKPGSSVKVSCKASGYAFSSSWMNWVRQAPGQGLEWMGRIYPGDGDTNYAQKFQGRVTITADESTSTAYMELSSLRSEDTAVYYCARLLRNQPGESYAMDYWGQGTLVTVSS VL: DVVMTQTPLSLSVTPGQPASISCRSSQSLVHSNRYTYLHWYLQKPGQSPQLLIYKVSNRFSGVPDRFSGSGSGTDFTLKISRVEAEDVGVYYCSQSTRVPYTFGQGTKLEIK", "pKd": 5.33}
{"BINDER": "AL2p-43 (antibody, V domains shown, Fab and IgG formats under one id) VH: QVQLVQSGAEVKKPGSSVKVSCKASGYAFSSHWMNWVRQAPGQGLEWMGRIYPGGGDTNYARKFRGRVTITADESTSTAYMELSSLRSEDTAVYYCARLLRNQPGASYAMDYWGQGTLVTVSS VL: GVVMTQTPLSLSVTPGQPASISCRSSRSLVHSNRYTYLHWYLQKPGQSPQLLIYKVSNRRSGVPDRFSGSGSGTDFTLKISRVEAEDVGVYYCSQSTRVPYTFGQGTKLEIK", "pKd": 9.44}

// moving on: another record for pKd
Sample AL2p-53 (antibody, V domains shown, Fab and IgG formats under one id) VH: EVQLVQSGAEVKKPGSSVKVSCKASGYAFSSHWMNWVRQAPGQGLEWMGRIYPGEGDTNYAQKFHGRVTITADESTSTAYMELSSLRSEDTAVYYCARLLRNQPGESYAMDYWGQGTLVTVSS VL: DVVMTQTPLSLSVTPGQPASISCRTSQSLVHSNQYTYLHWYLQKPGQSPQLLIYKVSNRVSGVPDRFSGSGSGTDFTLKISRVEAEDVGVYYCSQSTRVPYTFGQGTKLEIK ; pKd observed: 7.50
